system: HL60; assay: AML cell line anti-proliferation (cell viability, ATPlite or CyQuant); assay type: cell-based; conditions: Homo sapiens, HL-60, 240 h; HL60 (APL cell line); five or ten days incubation; read-out: Tamibarotene anti-proliferative potency (EC50)

[
  {
    "molecule": "CC1(C)CCC(C)(C)c2cc(NC(=O)c3ccc(C(=O)O)cc3)ccc21 [tamibarotene]",
    "EC50 (nM)": 1.64
  }
]
